system under test: sodium-taurocholate cotransporting polypeptide (NTCP) (Homo sapiens)
Sequence (Q14973 whole entry): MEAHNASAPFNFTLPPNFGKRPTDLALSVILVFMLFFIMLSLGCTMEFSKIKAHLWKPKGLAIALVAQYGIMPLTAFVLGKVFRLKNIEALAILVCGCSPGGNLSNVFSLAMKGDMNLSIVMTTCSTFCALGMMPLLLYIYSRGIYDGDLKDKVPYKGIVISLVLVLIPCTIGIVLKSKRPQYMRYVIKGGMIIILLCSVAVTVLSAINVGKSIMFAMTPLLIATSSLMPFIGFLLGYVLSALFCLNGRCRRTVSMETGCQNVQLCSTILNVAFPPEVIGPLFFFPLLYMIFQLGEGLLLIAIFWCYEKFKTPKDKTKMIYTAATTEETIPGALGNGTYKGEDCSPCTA
assay info: NTCP inhibition, taurocholate uptake in CHO cells
Type: in vitro ADME
condition label: IC50 ratio compared to Debio 025
Square brackets hold non-standard residues; d marks the D form. Peptide text beside a SMILES is read from it. MeBmt = C/C=C/C[C@@H](C)[C@@H](O)[C@H](NC)C(=O)O; NEtVal = CCN[C@H](C(=O)O)C(C)C; NMeL = CN[C@@H](CC(C)C)C(=O)O; NMeV = CN[C@H](C(=O)O)C(C)C; dHiv = CC(C)[C@@H](O)C(=O)O; NMeA = CN[C@@H](C)C(=O)O; dNMeA = CN[C@H](C)C(=O)O; Abu = CC[C@H](N)C(=O)O
Listing of entries alongside the reported NTCP fold Debio 025.
quantity kind: NTCP fold Debio 025

# compound, quantity kind, meas value
data = [
    ("C/C=C/C[C@@H](C)[C@@H](O)[C@H]1C(=O)N[C@@H](CC)C(=O)N(C)[C@H](C)C(=O)N(CC)[C@@H](C(C)C)C(=O)N[C@@H](CC(C)C)C(=O)N(C)[C@@H](CC(C)C)C(=O)N[C@@H](C)C(=O)O[C@H](C(C)C)C(=O)N(C)[C@@H](CC(C)C)C(=O)N[C@@H](CC(C)C)C(=O)N(C)[C@@H](C(C)C)C(=O)N1C [(Ib)] (cyclo(A[dHiv][NMeL]L[NMeV][MeBmt][Abu][dNMeA][NEtVal]L[NMeL]))", "NTCP fold Debio 025", 0.05),
    ("C/C=C/C[C@@H](C)[C@@H](O)[C@H]1C(=O)N[C@@H](CC)C(=O)N(C)[C@H](C)C(=O)N(C)[C@@H](C(C)C)C(=O)N[C@@H](C(C)C)C(=O)N(C)[C@@H](C)C(=O)N[C@@H](C)C(=O)O[C@H](C(C)C)C(=O)N(C)[C@@H](CC(C)C)C(=O)N[C@@H](CC(C)C)C(=O)N(C)[C@@H](C(C)C)C(=O)N1C [(Ie)] (cyclo(A[dHiv][NMeL]L[NMeV][MeBmt][Abu][dNMeA][NMeV]V[NMeA]))", "NTCP fold Debio 025", 0.12),
]

* * *

pIC50: −log10 of the molar value. Square brackets hold non-standard residues; d marks the D form. Peptide text beside a SMILES is read from it. MeBmt = C/C=C/C[C@@H](C)[C@@H](O)[C@H](NC)C(=O)O; NMeL = CN[C@@H](CC(C)C)C(=O)O; NMeV = CN[C@H](C(=O)O)C(C)C; dHiv = CC(C)[C@@H](O)C(=O)O; NMeA = CN[C@@H](C)C(=O)O; dNMeA = CN[C@H](C)C(=O)O; Abu = CC[C@H](N)C(=O)O
Measurement record for bile salt export pump (BSEP) (Homo sapiens); quantity recorded: pIC50.

# molecule, pIC50
measured = [
    ("C/C=C/C[C@@H](C)[C@@H](O)[C@H]1C(=O)N[C@@H](CC)C(=O)N(C)[C@H](C)C(=O)N(C)[C@@H](C(C)C)C(=O)N[C@@H](C(C)C)C(=O)N(C)[C@@H](C)C(=O)N[C@@H](C)C(=O)O[C@H](C(C)C)C(=O)N(C)[C@@H](CC(C)C)C(=O)N[C@@H](CC(C)C)C(=O)N(C)[C@@H](C(C)C)C(=O)N1C [(Ie)] (cyclo(A[dHiv][NMeL]L[NMeV][MeBmt][Abu][dNMeA][NMeV]V[NMeA]))", 6.22),
    ("C/C=C/C[C@@H](C)[C@@H](O)[C@H]1C(=O)N[C@@H](C(C)C)C(=O)N(C)[C@H](C)C(=O)N(C)[C@@H](C(C)C)C(=O)N[C@@H](CC(C)C)C(=O)N(C)[C@@H](CC(C)C)C(=O)NCC(=O)O[C@H](C(C)C)C(=O)N(C)[C@@H](CC(C)C)C(=O)N[C@@H](CC(C)C)C(=O)N(C)[C@@H](C(C)C)C(=O)N1C [(If)] (cyclo(G[dHiv][NMeL]L[NMeV][MeBmt]V[dNMeA][NMeV]L[NMeL]))", 6.32),
    ("C/C=C/C[C@@H](C)[C@@H](O)[C@H]1C(=O)N[C@@H](CC)C(=O)N(C)[C@H](C)C(=O)N(C)[C@@H](C(C)C)C(=O)N[C@@H](CC(C)C)C(=O)N(C)[C@@H](CC(C)C)C(=O)N[C@@H](C)C(=O)O[C@H](C(C)C)C(=O)N(C)[C@@H](CC(C)C)C(=O)N[C@@H](CC(C)C)C(=O)N(C)[C@@H](C(C)C)C(=O)N1C [(Id)] (cyclo(A[dHiv][NMeL]L[NMeV][MeBmt][Abu][dNMeA][NMeV]L[NMeL]))", 6.24),
    ("C/C=C/C[C@@H](C)[C@@H](O)[C@H]1C(=O)N[C@@H](CC)C(=O)N(C)[C@H](C)C(=O)N(CC)[C@@H](C(C)C)C(=O)N[C@@H](C(C)C)C(=O)N(C)[C@@H](CC(C)C)C(=O)N[C@@H](C)C(=O)N[C@H](C)C(=O)N(C)[C@@H](CC(C)C)C(=O)N(C)[C@@H](CC(C)C)C(=O)N(C)[C@@H](C(C)C)C(=O)N1C [Debio 025, [D-MeAla]^3-[EtVal]^4-CsA, reference compound]", 6.62),
]
